Reported Plant response rating, Surinam Grass values for the following molecules.
- Test system: Surinam grass
- Method Summary: Test F preemergence test
- Format: in vivo, Brachiaria decumbens
- Particulars: Preemergence, 62 g ai/ha; scale 0 to 100
Reply with the value as a number alone.

Example results:
- Cn1nc(OC(F)F)c(CS(=O)(=O)c2cccc[n+]2[O-])c1C(F)(F)F: 98
- CC(Oc1c(C[S+]([O-])c2cccc[n+]2[O-])c(C(F)(F)F)nn1C)C(F)(F)F (centres unmarked): 95
- Cn1nc(C(F)(F)C(F)(F)F)c(C[S+]([O-])c2cccc[n+]2[O-])c1OCC(F)(F)F (centres unmarked): 100
- CCn1nc(C(F)(F)F)c(CS(=O)(=O)c2cccc[n+]2[O-])c1OCC(F)(F)F: 100

Turning now to a further record.
I'd like to know its Plant response rating, Surinam Grass. The molecule in question is Cn1nc(C(F)(F)F)c(C[S+]([O-])c2ccc(Cl)c[n+]2[O-])c1OCC(F)(F)F (racemic)
100

* * *

- System: downy brome
- Method Summary: Test C pre-/postemergence test
- Assay type: in vivo, Bromus tectorum
- Particulars: Postemergence, 125 g ai/ha; scale 0 to 100, 0 no effect, 100 complete control
# key: entry, value: Plant response rating, Bromegrass, Downy
# answer = number (no unit)

For orientation, consider the following solved cases.
- CCn1nc(C(F)(F)F)c(CS(=O)(=O)c2cc(C)cc[n+]2[O-])c1OCC(F)(F)F [Compound 64]: 10
- CC(c1c(C(F)(F)F)nn(C)c1Cl)S(=O)(=O)c1ccc(Cl)c[n+]1[O-] (racemic) [Compound 40]: 0
- Cn1nc(C(F)(F)F)c(C[S+]([O-])c2ccc(Cl)c[n+]2[O-])c1OCC(F)(F)F (racemic) [Compound 62]: 45
- Cn1nc(C(F)(F)F)c(C[S+]([O-])c2cccc[n+]2[O-])c1OC(F)F (centres unmarked) [Compound 3]: 0

In the following, a different molecule is considered.
Entry under review: Cn1nc(C(F)(F)F)c(C[S+]([O-])c2ccc(F)c[n+]2[O-])c1OC(F)F (centres unmarked) [Compound 58] . Reported Plant response rating, Bromegrass, Downy?
0

* * *

- System: wheat
- Method Summary: Test A pre-/postemergence greenhouse test
- Format: in vivo, Triticum aestivum
- Particulars: Postemergence, 500 g ai/ha; 0 to 100 scale, 0 is no effect, 100 is complete control
Hi, to clarify the labels: MET covers Wheat plant response rating from 60 upward, NOT MET covers anything below 60.

Here are 4 compounds together with their reported answers.
* Cn1nc(C(F)(F)F)c(CS(=O)(=O)c2ccc(Cl)c[n+]2[O-])c1OC(F)F [Compound 7] | NOT MET
* Cc1cc([S+]([O-])Cc2c(C(F)(F)F)nn(C)c2OCC(F)(F)F)[n+]([O-])cc1Cl (stereo not drawn) [Compound 70] | MET
* Cn1nc(C(F)(F)F)c(CS(=O)(=O)c2ccc(Br)c[n+]2[O-])c1OC(F)F [Compound 13] | NOT MET
* Cn1nc(C(F)(F)F)c(CS(=O)(=O)c2ccc(Cl)c[n+]2[O-])c1OCC(F)F [Compound 93] | NOT MET

Would you kindly look at the next entry?
Does Cn1nc(C(F)(F)F)c(C[S+]([O-])c2cc(Br)cc[n+]2[O-])c1Cl (racemic) [Compound 35] have a reported Wheat plant response rating of at least 60?
NOT MET

Every entry's value here was drawn from patent US20100298141A1.
